# System: glycogen synthase kinase-3 (GSK3A per assay name; protocol says GSK3B)
# measurement-description: GSK3 binders on small-molecule microarrays, primary screen, biochemical, small-molecule microarray, 635 nm fluorescence, GSK3A (AID 1103); also: the record names both GSK3A and GSK3B
# condition-parameters: small-molecule microarray binding, fluorescence 635 nm; higher = more signal
measure-name: composite z-score
Answers are plain numbers.

Quick batch: composite z-score for everything below.
1. CO[C@@H]1COC(=O)[C@@H]2CCCN2C(=O)[C@@H](C)COC(=O)[C@H](COCc2ccccc2)NC(=O)CC=C[C@H]1C
2. CCCNC(=O)[C@@H]1c2ccccc2C(=O)N(c2ccc(C)cn2)[C@H]1c1ccc(CO)cc1
3. C#CCCCON=C1C[C@@H](O)[C@@H](O)[C@@H]2[C@@H]3C(=O)N(CCC(=O)OCC)C(=O)[C@@H]3CC[C@@H]12
4. COC(=O)[C@@]1(Cc2ccccc2)[C@H]2c3cc(C(=O)N4CCCC4)n(Cc4ccccn4)c3C[C@H]2CN1C(=O)c1ccccc1

[A]
1. 0.575
2. -0.503
3. -0.493
4. 1.3

* * *

# Tested on: Inhibin beta A chain (activin A)
# measurement-description: INHBA (activin A) binders on microarrays, primary screen, biochemical, small-molecule microarray, 635 nm fluorescence scan (AID 1107);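 also: mouse activin A protein probed at 4.33 µg/mL on printed slides; score merges bound-protein fluorescence near 667 nm with spot signal-to-noise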
# condition-parameters: small-molecule microarray binding, higher = more signal
measure-name: composite z-score
One number for each entry.

For each of the compounds below, note its composite z-score.
1. O=C1[C@H]2[C@H]3[C@H](O)[C@H](O)CC(=NOC[C@@H](O)COCc4ccco4)[C@H]3CC[C@H]2C(=O)N1Cc1ccc2c(c1)OCO2
2. O=C1O[C@@H](c2ccccc2)[C@@H](c2ccccc2)N2[C@@H](c3ccc(O)cc3)[C@]3(C(=O)Nc4ccccc43)[C@@H](C(=O)O)[C@H]12
3. C=C(COC)/C(=C/C[C@H](OC(=O)c1ccncc1)c1ccc(CO)o1)c1cc(C(=O)OC)ccc1OC
4. COC(=O)CC=C[C@@H](C)[C@@H](C=NO[C@@H](C)c1cc(-c2c(C)cc(C)cc2C)no1)OC
5. C#C[C@@H](CC)O[Si](C#Cc1ccc(Oc2ccccc2)cc1)(C(C)C)C(C)C

[A]
1. 0.0751
2. 0.385
3. 1.34
4. -0.2
5. 0.0324

Lab note: each compound below needs its composite z-score filled in.
1. O=C(CS)NCCCCCNC(=O)[C@@H]1C[C@@H]2C(=O)N[C@@H](Cc3ccccc3)C(=O)N2[C@@H]1c1ccc(O)cc1
2. COCCOC(=O)N1C(=O)[C@@]2(c3cc(C#CCNC(N)=O)ccc31)[C@H](c1ccccc1OCCO)N1[C@H](c3ccccc3)[C@H](c3ccccc3)OC(=O)[C@H]1[C@@H]2C(=O)N1CCN(c2ncccn2)CC1

[A]
-0.516
1.35

* * *

# target: NADPH oxidase 2 (Homo sapiens) (UniProt P04839)
# Sequence (P04839 whole entry, looked up): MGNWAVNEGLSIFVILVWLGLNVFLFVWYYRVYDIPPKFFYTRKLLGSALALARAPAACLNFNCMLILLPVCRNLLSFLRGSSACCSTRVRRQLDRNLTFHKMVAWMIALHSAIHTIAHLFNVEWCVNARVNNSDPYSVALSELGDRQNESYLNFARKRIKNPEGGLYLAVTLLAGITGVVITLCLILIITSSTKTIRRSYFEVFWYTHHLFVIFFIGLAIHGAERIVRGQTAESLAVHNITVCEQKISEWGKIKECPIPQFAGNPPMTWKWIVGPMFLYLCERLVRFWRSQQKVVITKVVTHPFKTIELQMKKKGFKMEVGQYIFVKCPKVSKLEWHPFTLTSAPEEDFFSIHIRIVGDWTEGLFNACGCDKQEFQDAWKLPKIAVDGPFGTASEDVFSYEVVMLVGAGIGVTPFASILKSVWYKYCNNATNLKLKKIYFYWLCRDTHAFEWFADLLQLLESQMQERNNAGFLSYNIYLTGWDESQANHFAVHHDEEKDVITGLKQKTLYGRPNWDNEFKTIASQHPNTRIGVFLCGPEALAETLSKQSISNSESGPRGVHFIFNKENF
# measurement-description: NOX2-dependent H2O2 signal modulators, primary screen, NOX inhibitor project, cell-based, HEK293-NOX2, PMA-stimulated, Amplex Red fluorescence (AID 1159); also: test concentration not given here
# condition-parameters: 45 min, higher = more signal, called active from +8 up or from −8 down
Short version: z-score at least 0.1 is rule met, less is rule not met.

| compound | classification |
| --- | --- |
| O=C1c2ccccc2[C@@]2(Cc3ccccc3N(C3CC3)C2=O)[C@H](c2ccc(CO)cc2)N1Cc1ccccc1C(F)(F)F | rule met |
| CC(C)(C)OC(=O)CC[C@]1(C(N)=O)COC(c2ccc(OCCCO)cc2)=N1 | rule met |
| C[C@H]1CC[C@@H](C(=O)O)N[C@@H]1c1ccc(C#CCN(C)C)cc1 | rule met |
| O=C1[C@H]2[C@H]3[C@H](O)[C@H](O)CC(=NOCc4ccccc4)[C@H]3CC[C@H]2C(=O)N1C[C@@H]1CCCO1 | rule met |
| C=CCN1C(=O)[C@]2(O[C@H](CCn3cc(CCO)nn3)[C@@H]([Si](C)(C)c3ccc(OC)cc3)[C@@H]2C)c2cc(N3CCOC3=O)ccc21 | rule met |

Shifting focus to the compound that follows.
[Q] API: above_or_equal(metric=z-score, cutoff=0.1) for item C=C(/C(=C/C[C@@H](OC(=O)c1ccncc1)c1ccc(OCCO)cc1)c1cnc2ccccc2c1)C(C)C
[A] rule not met
